FYI, the data here is from patent US20160257744A1.

Target: T1, interleukin 5 (IL5) (human, UniProt P05113 20-134)
T1 construct: also called human IL5 (R&D Systems)
T1 sequence (looked up): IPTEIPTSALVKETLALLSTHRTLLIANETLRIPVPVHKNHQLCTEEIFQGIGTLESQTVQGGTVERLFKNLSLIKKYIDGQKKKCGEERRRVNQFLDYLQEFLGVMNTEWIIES
Test: phage competition ELISA (phage IC50), soluble IL5 against IL5-coated wells
assayMetric: IC50 (nM)
Record the value in nM, omitting the unit from your answer.

Field IC50 (entry 1C.27 (Fab, V domains shown) VH: EVQLVQSGAEVKKPGASVKVSCKASGYTFTDYFIHWVRQAPGQGLEWIGGIVYDATGFTIYADDFKGRVTITRDTSTSTAYLELSSLRSEDTAVYYCARGGIFYGMDYWGQGTLVTVSS VL: DIQMTQSPSSLSASVGDRVTITCKASQSVINDAAWYQQKPGKAPKLLIYYTSHRYTGVPSRFSGSGSGTDFTLTISSLQEDFATYYCQQDYTHPWTFGQGTKVEIKR ) reads 18.2
